FYI, the data here is from PubChem BioAssay AID1963961.

tested on: K98450-129-R-PDC multicell spheroids, viability; assay: Anticancer human tumor K98450-129-R-PDC patient-derived colon adenocarcinoma cell line growth inhibition [PI3K]; details: curve of first compound; second compound 1 µM

compound	IC50
Cn1nccc1Nc1nccc(-c2ccn(C(CO)c3ccc(Cl)c(F)c3)c(=O)c2)n1 (stereo not drawn) + Cc1nc(NC(=O)N2CCCC2C(N)=O)sc1-c1ccnc(C(C)(C)C(F)(F)F)c1	> 10 µM
CC(C)n1nc(-c2ccc3oc(N)nc3c2)c2c(N)ncnc21 + CC(Nc1ncnc2nc[nH]c12)c1cc2cccc(Cl)c2c(=O)n1-c1ccccc1	> 0.1 µM
CC(Cn1ccc(-c2ccc(C#N)c(Cl)c2)n1)NC(=O)c1cc(C(C)O)[nH]n1 (stereo not drawn) + CC(Nc1ccc2c(c1)OCCn1cc(N3C(=O)OCC3C(F)F)nc1-2)C(N)=O	> 10 µM

* * *

test system: K98450-129-R-PDC multicell spheroids, viability; assay: Anticancer human tumor K98450-129-R-PDC cell line growth inhibition [PI3K]; settings: curve of first compound; second compound 1 µM;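 note: spheroids exposed to agents for seven days before read-out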
pIC50: −log10 of the molar value.
readout: pIC50

compound	endpoint result
Cn1ncc(Cl)c1-c1cc(C(=O)NC(CN)Cc2cccc(F)c2)sc1Cl (stereo not drawn) + CC(Nc1ncnc2nc[nH]c12)c1cc2cccc(Cl)c2c(=O)n1-c1ccccc1	< 5.00
CC(=O)c1c(C)c2cnc(Nc3ccc(N4CCNCC4)cn3)nc2n(C2CCCC2)c1=O + CC(Nc1ncnc2nc[nH]c12)c1cc2cccc(Cl)c2c(=O)n1-c1ccccc1	< 7.00
C#Cc1c(F)ccc2cc(O)cc(-c3ncc4c(N5CC6CCC(C5)N6)nc(OCC56CCCN5CC(F)C6)nc4c3F)c12 (stereo not drawn) + CC(Nc1ncnc2nc[nH]c12)c1cc2cccc(Cl)c2c(=O)n1-c1ccccc1	< 5.00

* * *

system: K98450-129-R-PDC multicell spheroids, viability; experiment: Anticancer human tumor K98450-129-R-PDC cell line growth inhibition [PI3K]; details: curve of first compound; second compound 1 µM;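 note: spheroids exposed to agents for seven days before read-out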
Parameter: IC50. Scope: all listed entries.
readout: IC50

molecule	readout	endpoint result
CC(C)n1nc(-c2ccc3oc(N)nc3c2)c2c(N)ncnc21 + Cc1nc(NC(=O)N2CCCC2C(N)=O)sc1-c1ccnc(C(C)(C)C(F)(F)F)c1	IC50	> 0.1 µM
CC(C)NCC(C(=O)N1CCN(c2ncnc3c2C(C)CC3O)CC1)c1ccc(Cl)cc1 (stereo unspecified) + Cc1nc(NC(=O)N2CCCC2C(N)=O)sc1-c1ccnc(C(C)(C)C(F)(F)F)c1	IC50	> 10 µM
CC(Cn1ccc(-c2ccc(C#N)c(Cl)c2)n1)NC(=O)c1cc(C(C)O)[nH]n1 (stereo unspecified) + CC(Nc1ncnc2nc[nH]c12)c1cc2cccc(Cl)c2c(=O)n1-c1ccccc1	IC50	> 10 µM
C[C@@H](NC(=O)c1ncnc(N)c1Cl)c1ncc(C(=O)Nc2cc(C(F)(F)F)c(Cl)cn2)s1 + CC(Nc1ccc2c(c1)OCCn1cc(N3C(=O)OCC3C(F)F)nc1-2)C(N)=O	IC50	> 10 µM
CC(=O)c1c(C)c2cnc(Nc3ccc(N4CCNCC4)cn3)nc2n(C2CCCC2)c1=O + Cc1nc(NC(=O)N2CCCC2C(N)=O)sc1-c1ccnc(C(C)(C)C(F)(F)F)c1	IC50	> 0.1 µM
CC(C)NCC(C(=O)N1CCN(c2ncnc3c2C(C)CC3O)CC1)c1ccc(Cl)cc1 (stereo unspecified) + CC(Nc1ncnc2nc[nH]c12)c1cc2cccc(Cl)c2c(=O)n1-c1ccccc1	IC50	> 10 µM

* * *

tested on: K98450-129-R-PDC multicell spheroids, viability; test: Anticancer human tumor K98450-129-R-PDC cell line growth inhibition [PI3K]; conditions: second compound 1 µM; first compound 0.001 µM; stronger effect = lower value;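 note: spheroids exposed to agents for seven days before read-out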
Parameter: viability, T/C. Scope: all listed entries.
readout: viability, T/C (%)

>>> print(df.to_string())
                                   compound                              study_system         readout  endpoint_result
0  CC(C)n1nc(-c2ccc3oc(N)nc3c2)c2c(N)ncnc21 + CC(Nc1ncnc2nc[nH]c12)c1cc2cccc(Cl)c2c(=O)n1-c1ccccc1  K98450-129-R-PDC multicell spheroids, viability  viability, T/C              111
1  CC(C)n1nc(-c2ccc3oc(N)nc3c2)c2c(N)ncnc21 + Cc1nc(NC(=O)N2CCCC2C(N)=O)sc1-c1ccnc(C(C)(C)C(F)(F)F)c1  K98450-129-R-PDC multicell spheroids, viability  viability, T/C             89.5
2  Cn1ncnc1[C@H]1c2n[nH]c(=O)c3cc(F)cc(c23)N[C@@H]1c1ccc(F)cc1 + Cc1nc(NC(=O)N2CCCC2C(N)=O)sc1-c1ccnc(C(C)(C)C(F)(F)F)c1  K98450-129-R-PDC multicell spheroids, viability  viability, T/C             98.1
3  CC(C)n1nc(-c2ccc3oc(N)nc3c2)c2c(N)ncnc21 + COc1c(OCCCN2CCOCC2)ccc2c3n(c(=NC(=O)c4cnc(N)nc4)nc12)CCN3  K98450-129-R-PDC multicell spheroids, viability  viability, T/C             59.4

* * *

test system: K98450-129-R-PDC multicell spheroids, viability; experiment: Anticancer human tumor K98450-129-R-PDC cell line growth inhibition [PI3K]; details: second compound 0.0316 µM; first compound 3.16 µM; stronger effect = lower value;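 note: spheroids exposed to agents for seven days before read-out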

compound	viability, T/C
CNC(=O)c1ccc(N2C(=S)N(c3ccc(C#N)c(C(F)(F)F)c3)C(=O)C2(C)C)cc1F + CC(Nc1ccc2c(c1)OCCn1cc(N3C(=O)OCC3C(F)F)nc1-2)C(N)=O	112%
C[C@@H](NC(=O)c1ncnc(N)c1Cl)c1ncc(C(=O)Nc2cc(C(F)(F)F)c(Cl)cn2)s1 + COc1c(OCCCN2CCOCC2)ccc2c3n(c(=NC(=O)c4cnc(N)nc4)nc12)CCN3	109%
Cn1ncc(Cl)c1-c1cc(C(=O)NC(CN)Cc2cccc(F)c2)sc1Cl (stereo not given) + Cc1nc(NC(=O)N2CCCC2C(N)=O)sc1-c1ccnc(C(C)(C)C(F)(F)F)c1	88.9%
CC(Cn1ccc(-c2ccc(C#N)c(Cl)c2)n1)NC(=O)c1cc(C(C)O)[nH]n1 (stereo not given) + COc1c(OCCCN2CCOCC2)ccc2c3n(c(=NC(=O)c4cnc(N)nc4)nc12)CCN3	93.1%
C[C@@H](NC(=O)c1ncnc(N)c1Cl)c1ncc(C(=O)Nc2cc(C(F)(F)F)c(Cl)cn2)s1 + CC(Nc1ncnc2nc[nH]c12)c1cc2cccc(Cl)c2c(=O)n1-c1ccccc1	109%

* * *

tested on: K98450-129-R-PDC multicell spheroids, viability; assay: Anticancer human tumor K98450-129-R-PDC cell line growth inhibition [PI3K]; conditions: second compound 1 µM; first compound 0.0316 µM; stronger effect = lower value;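 note: spheroids exposed to agents for seven days before read-out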

compound	viability, T/C
CC(C)n1nc(-c2ccc3oc(N)nc3c2)c2c(N)ncnc21 + CC(Nc1ncnc2nc[nH]c12)c1cc2cccc(Cl)c2c(=O)n1-c1ccccc1	92.1%
C[C@@H](NC(=O)c1ncnc(N)c1Cl)c1ncc(C(=O)Nc2cc(C(F)(F)F)c(Cl)cn2)s1 + Cc1nc(NC(=O)N2CCCC2C(N)=O)sc1-c1ccnc(C(C)(C)C(F)(F)F)c1	92.6%
C#Cc1c(F)ccc2cc(O)cc(-c3ncc4c(N5CC6CCC(C5)N6)nc(OCC56CCCN5CC(F)C6)nc4c3F)c12 (stereo not given) + Cc1nc(NC(=O)N2CCCC2C(N)=O)sc1-c1ccnc(C(C)(C)C(F)(F)F)c1	89.5%
CC(C)n1nc(-c2ccc3oc(N)nc3c2)c2c(N)ncnc21 + COc1c(OCCCN2CCOCC2)ccc2c3n(c(=NC(=O)c4cnc(N)nc4)nc12)CCN3	54.8%
CC(C)NCC(C(=O)N1CCN(c2ncnc3c2C(C)CC3O)CC1)c1ccc(Cl)cc1 (stereo not given) + CC(Nc1ncnc2nc[nH]c12)c1cc2cccc(Cl)c2c(=O)n1-c1ccccc1	106%
CC(Cn1ccc(-c2ccc(C#N)c(Cl)c2)n1)NC(=O)c1cc(C(C)O)[nH]n1 (stereo not given) + CC(Nc1ccc2c(c1)OCCn1cc(N3C(=O)OCC3C(F)F)nc1-2)C(N)=O	87.7%
CC(=O)c1c(C)c2cnc(Nc3ccc(N4CCNCC4)cn3)nc2n(C2CCCC2)c1=O + COc1c(OCCCN2CCOCC2)ccc2c3n(c(=NC(=O)c4cnc(N)nc4)nc12)CCN3	57.8%
CC(=O)c1c(C)c2cnc(Nc3ccc(N4CCNCC4)cn3)nc2n(C2CCCC2)c1=O + Cc1nc(NC(=O)N2CCCC2C(N)=O)sc1-c1ccnc(C(C)(C)C(F)(F)F)c1	98.8%
CC1(C)CCC(Nc2ncc(C(F)(F)F)c(-c3c[nH]c4c(P(C)(C)=O)c(C#N)ccc34)n2)CN1 (stereo not given) + CC(Nc1ccc2c(c1)OCCn1cc(N3C(=O)OCC3C(F)F)nc1-2)C(N)=O	91.9%
C=CC(=O)N1CCN(c2nc(=O)n(-c3c(C)ccnc3C(C)C)c3nc(-c4c(O)cccc4F)c(F)cc23)C(C)C1 (stereo not given) + COc1c(OCCCN2CCOCC2)ccc2c3n(c(=NC(=O)c4cnc(N)nc4)nc12)CCN3	50.8%
CC1(C)CCC(CN2CCN(c3ccc(C(=O)NS(=O)(=O)c4ccc(NCC5CCOCC5)c([N+](=O)[O-])c4)c(Oc4cnc5[nH]ccc5c4)c3)CC2)=C(c2ccc(Cl)cc2)C1 + COc1c(OCCCN2CCOCC2)ccc2c3n(c(=NC(=O)c4cnc(N)nc4)nc12)CCN3	49.1%
CCCS(=O)(=O)Nc1ccc(F)c(C(=O)c2c[nH]c3ncc(-c4ccc(Cl)cc4)cc23)c1F + Cc1nc(NC(=O)N2CCCC2C(N)=O)sc1-c1ccnc(C(C)(C)C(F)(F)F)c1	89.2%
CC1(C)CCC(CN2CCN(c3ccc(C(=O)NS(=O)(=O)c4ccc(NCC5CCOCC5)c([N+](=O)[O-])c4)c(Oc4cnc5[nH]ccc5c4)c3)CC2)=C(c2ccc(Cl)cc2)C1 + CC(Nc1ncnc2nc[nH]c12)c1cc2cccc(Cl)c2c(=O)n1-c1ccccc1	87.8%
C=CC(=O)N1CCN(c2nc(=O)n(-c3c(C)ccnc3C(C)C)c3nc(-c4c(O)cccc4F)c(F)cc23)C(C)C1 (stereo not given) + CC(Nc1ncnc2nc[nH]c12)c1cc2cccc(Cl)c2c(=O)n1-c1ccccc1	113%
Cn1nccc1Nc1nccc(-c2ccn(C(CO)c3ccc(Cl)c(F)c3)c(=O)c2)n1 (stereo not given) + CC(Nc1ncnc2nc[nH]c12)c1cc2cccc(Cl)c2c(=O)n1-c1ccccc1	89.5%
